Test system: SW48 colorectal cancer cells
procedure.text: 2D antiproliferation on MSI-H SW48 cells, CTG, 5 days
Type: cell-based
run.parameters: Homo sapiens; SW48, 0.038146973 nM; read-out: Average Value/Inhibition Rate
Give inhibition at 38.15 pM for every item shown.
Give bare numbers, in %.

// below: answered molecules
{"structure.string": "CCc1c(N2CCN(C(=O)c3ncnc(C)c3O)CC2)c(=O)n2nc(-c3cc4c(s3)COC4)nc2n1CC(=O)Nc1ccc(Br)cc1Cl", "inhibition at 38.15 pM / %": -4.41}
{"structure.string": "CCc1c(N2CCN(C(=O)c3ncnc(C)c3O)CC2)c(=O)n2nc(-c3cc4cn[nH]c4s3)nc2n1CC(=O)Nc1ccc(C(F)(F)F)cc1Cl", "inhibition at 38.15 pM / %": -0.502}
{"structure.string": "CCc1c(N2CCN(C(=O)c3ncnc(C)c3O)CC2)c(=O)n2nc(-c3cc4c(s3)COC4)nc2n1CC(=O)Nc1ccc(C(F)(F)F)cc1Cl", "inhibition at 38.15 pM / %": 6.64}

Now look at this one.
I have this molecule here, CCc1c(N2CCN(C(=O)c3ncnc(C)c3O)CC2)c(=O)n2nc(-c3cc4c(s3)COC4)nc2n1CC(=O)Nc1ccc(C(F)(F)F)cc1C , and I need its recorded inhibition at 38.15 pM.
18.3
